System: HT1080
assayOverview: relative viability vs DMSO control (72 h) (fraction); higher = more viable cells
conditionNotes: 1.111 µM
reportedMetric: relative viability

Below, each entry is followed by its recorded relative viability result.
compound=COc1cc2ncnc(Nc3ccc(F)c(Cl)c3)c2cc1OCCCN1CCOCC1 valueobserved=1.05
compound=O=C(c1ccc(F)c(F)c1Nc1ccc(I)cc1F)N1CC(O)([C@@H]2CCCCN2)C1 valueobserved=0.39
compound=Cc1cc(F)c(C(=O)Nc2cccc(-c3nncn3C(C)C)n2)cc1-n1cnc(C2CC2)c1 valueobserved=1.08

Find the recorded relative viability belonging to Cc1cc2c(F)c(Oc3ncnn4cc(OC[C@@H](C)OC(=O)[C@H](C)N)c(C)c34)ccc2[nH]1 [Brivanib_alaninate] and report it.
1.05

Proceed to Cc1c2oc3c(C)ccc(C(=O)N[C@@H]4C(=O)N[C@H](C(C)C)C(=O)N5CCC[C@H]5C(=O)N(C)CC(=O)N(C)[C@@H](C(C)C)C(=O)O[C@@H]4C)c3nc-2c(C(=O)N[C@@H]2C(=O)N[C@H](C(C)C)C(=O)N3CCC[C@H]3C(=O)N(C)CC(=O)N(C)[C@@H](C(C)C)C(=O)O[C@@H]2C)c(N)c1=O
0.137

Proceed to CNC(=O)c1cccc2cc(Oc3ccnc4cc(OCC5(N)CC5)c(OC)cc34)ccc12
1.11

Proceed to Cn1cnc2c(F)c(Nc3ccc(Br)cc3Cl)c(C(=O)NOCCO)cc21
0.602

###

Test system: SW684
assayOverview: relative viability vs DMSO control (72 h) (fraction); higher = more viable cells
conditionNotes: 3.333 µM
Recorded relative viability by entry
Would you mind answering with just the numeric figure?

Below, each entry is followed by its recorded relative viability result.
structure=Cc1c2oc3c(C)ccc(C(=O)N[C@@H]4C(=O)N[C@H](C(C)C)C(=O)N5CCC[C@H]5C(=O)N(C)CC(=O)N(C)[C@@H](C(C)C)C(=O)O[C@@H]4C)c3nc-2c(C(=O)N[C@@H]2C(=O)N[C@H](C(C)C)C(=O)N3CCC[C@H]3C(=O)N(C)CC(=O)N(C)[C@@H](C(C)C)C(=O)O[C@@H]2C)c(N)c1=O measuredtarget=SW684 valueobserved=0.816
structure=Cc1cc(F)c(C(=O)Nc2cccc(-c3nncn3C(C)C)n2)cc1-n1cnc(C2CC2)c1 measuredtarget=SW684 valueobserved=1.13
structure=C#Cc1cccc(Nc2ncnc3cc4c(cc23)OCCOCCOCCO4)c1 measuredtarget=SW684 valueobserved=1.16
structure=COC(=O)c1ccc2c(c1)NC(=O)/C2=C(\Nc1ccc(N(C)C(=O)CN2CCN(C)CC2)cc1)c1ccccc1 measuredtarget=SW684 valueobserved=0.96
structure=CS(=O)(=O)CCNCc1ccc(-c2ccc3ncnc(Nc4ccc(OCc5cccc(F)c5)c(Cl)c4)c3c2)o1 measuredtarget=SW684 valueobserved=1.15

Attention now shifts to the item below.
Find the recorded relative viability belonging to CCS(=O)(=O)N1CC(CC#N)(n2cc(-c3ncnc4[nH]ccc34)cn2)C1 and report it.
1.05

###

System: SK-ES-1
assayOverview: relative viability vs DMSO control (72 h) (fraction); higher = more viable cells
conditionNotes: 3.333 µM
reportedMetric: relative viability
Would you mind answering with just the numeric figure?

Notebook: pull reported relative viability for SK-ES-1, entry C=CC(=O)N1CCC(CNc2ncnc(N)c2-c2ccc(Oc3ccccc3)cc2)CC1
1.01

Proceed to CC(=O)c1c(C)c2cnc(Nc3ccc(N4CCNCC4)cn3)nc2n(C2CCCC2)c1=O
0.407

Proceed to C#Cc1cccc(Nc2ncnc3cc4c(cc23)OCCOCCOCCO4)c1
1.01

Proceed to COC(=O)c1ccc2c(c1)NC(=O)/C2=C(\Nc1ccc(N(C)C(=O)CN2CCN(C)CC2)cc1)c1ccccc1
0.399

Proceed to Cc1[nH]c(/C=C2\C(=O)Nc3ccccc32)c(C)c1CCC(=O)O [Orantinib]
0.982

###

System: SK-LMS-1
assayOverview: relative viability vs DMSO control (72 h) (fraction); higher = more viable cells
conditionNotes: 10 µM
Recorded relative viability by entry
Would you mind answering with just the numeric figure?

Below, each entry is followed by its recorded relative viability result.
structure=CCOc1cc2ncc(C#N)c(Nc3ccc(OCc4ccccn4)c(Cl)c3)c2cc1NC(=O)/C=C/CN(C)C measuredtarget=SK-LMS-1 reportedmetric="relative viability" valueobserved=0.0104
structure=CN(C)C/C=C/C(=O)Nc1cc2c(Nc3ccc(F)c(Cl)c3)ncnc2cc1O[C@H]1CCOC1 measuredtarget=SK-LMS-1 reportedmetric="relative viability" valueobserved=0.135
structure=O=C(c1ccc(F)c(F)c1Nc1ccc(I)cc1F)N1CC(O)([C@@H]2CCCCN2)C1 measuredtarget=SK-LMS-1 reportedmetric="relative viability" valueobserved=0.0129
structure=CN(C)C(=O)c1cc2cnc(Nc3ccc(N4CCNCC4)cn3)nc2n1C1CCCC1 measuredtarget=SK-LMS-1 reportedmetric="relative viability" valueobserved=0.904
structure=COc1cc(Nc2ncc3c(n2)-c2ccc(Cl)cc2C(c2c(F)cccc2OC)=NC3)ccc1C(=O)O measuredtarget=SK-LMS-1 reportedmetric="relative viability" valueobserved=0.678

Find the recorded relative viability belonging to Cn1cnc2c(F)c(Nc3ccc(Br)cc3Cl)c(C(=O)NOCCO)cc21 and report it.
0.37

###

Test system: RD-ES
assayOverview: relative viability vs DMSO control (72 h) (fraction); higher = more viable cells
conditionNotes: 10 µM
Recorded relative viability by entry
Would you mind answering with just the numeric figure?

Below, each entry is followed by its recorded relative viability result.
compound="Cc1cc2c(F)c(Oc3ncnn4cc(OC[C@@H](C)OC(=O)[C@H](C)N)c(C)c34)ccc2[nH]1 [Brivanib_alaninate]" reportedmetric="relative viability" valueobserved=0.926
compound=C#Cc1cccc(Nc2ncnc3cc4c(cc23)OCCOCCOCCO4)c1 reportedmetric="relative viability" valueobserved=0.959
compound=CN(C)C/C=C/C(=O)Nc1cc2c(Nc3ccc(F)c(Cl)c3)ncnc2cc1O[C@H]1CCOC1 reportedmetric="relative viability" valueobserved=0.0144
compound="Cc1[nH]c(/C=C2\\C(=O)Nc3ccccc32)c(C)c1CCC(=O)O [Orantinib]" reportedmetric="relative viability" valueobserved=0.932

Find the recorded relative viability belonging to CC(=O)c1c(C)c2cnc(Nc3ccc(N4CCNCC4)cn3)nc2n(C2CCCC2)c1=O and report it.
0.18

###

System: SW982
assayOverview: standardised AUC of viability dose-response curve (72 h) (fraction (0-1)); higher = less growth inhibition (more resistant)
Recorded standardised AUC by entry
Would you mind answering with just the numeric figure?

Below, each entry is followed by its recorded standardised AUC result.
compound=CS(=O)(=O)CCNCc1ccc(-c2ccc3ncnc(Nc4ccc(OCc5cccc(F)c5)c(Cl)c4)c3c2)o1 reportedmetric="standardised AUC" valueobserved=0.94
compound=COC(=O)c1ccc2c(c1)NC(=O)/C2=C(\Nc1ccc(N(C)C(=O)CN2CCN(C)CC2)cc1)c1ccccc1 reportedmetric="standardised AUC" valueobserved=0.941

Attention now shifts to the item below.
Find the recorded standardised AUC belonging to Cc1[nH]c(/C=C2\C(=O)Nc3ccccc32)c(C)c1CCC(=O)O [ORANTINIB] and report it.
0.966

###

Recorded relative viability by entry
Test system: MES-SA
assayOverview: relative viability vs DMSO control (72 h) (fraction); higher = more viable cells
conditionNotes: 0.01372 µM
Would you mind answering with just the numeric figure?

Below, each entry is followed by its recorded relative viability result.
compound="Cc1[nH]c(/C=C2\\C(=O)Nc3ccccc32)c(C)c1CCC(=O)O [Orantinib]" reportedmetric="relative viability" valueobserved=0.951
compound=CN(C)C(=O)c1cc2cnc(Nc3ccc(N4CCNCC4)cn3)nc2n1C1CCCC1 reportedmetric="relative viability" valueobserved=0.896

Find the recorded relative viability belonging to Cc1c2oc3c(C)ccc(C(=O)N[C@@H]4C(=O)N[C@H](C(C)C)C(=O)N5CCC[C@H]5C(=O)N(C)CC(=O)N(C)[C@@H](C(C)C)C(=O)O[C@@H]4C)c3nc-2c(C(=O)N[C@@H]2C(=O)N[C@H](C(C)C)C(=O)N3CCC[C@H]3C(=O)N(C)CC(=O)N(C)[C@@H](C(C)C)C(=O)O[C@@H]2C)c(N)c1=O and report it.
0.265

Proceed to C[C@@H]1CN(C(=O)c2ccc(NC(=O)c3cc(O[C@H](C)c4c(Cl)ccc(F)c4Cl)c(N)nn3)cc2)C[C@H](C)N1
0.932

Proceed to CC(=O)c1c(C)c2cnc(Nc3ccc(N4CCNCC4)cn3)nc2n(C2CCCC2)c1=O
0.94

Proceed to C=CC(=O)N1CCC(CNc2ncnc(N)c2-c2ccc(Oc3ccccc3)cc2)CC1
0.964

Proceed to Cn1cnc2c(F)c(Nc3ccc(Br)cc3Cl)c(C(=O)NOCCO)cc21
0.847

Proceed to CNC(=O)c1c(C)oc2cc(Oc3ncnc4cc(OC)c(OC)cc34)ccc12
0.947

###

System: KHOS-NP
assayOverview: relative viability vs DMSO control (72 h) (fraction); higher = more viable cells
conditionNotes: 0.04115 µM
Recorded relative viability by entry

Below, each entry is followed by its recorded relative viability result.
molecule="COc1cc2ncnc(Nc3ccc(F)c(Cl)c3)c2cc1OCCCN1CCOCC1 [Gefitinib]" valueobserved=1.07
molecule="O=C(c1ccc(F)c(F)c1Nc1ccc(I)cc1F)N1CC(O)([C@@H]2CCCCN2)C1 [Cobimetinib]" valueobserved=0.912

Attention now shifts to the item below.
Find the recorded relative viability belonging to Cc1cc(F)c(C(=O)Nc2cccc(-c3nncn3C(C)C)n2)cc1-n1cnc(C2CC2)c1 [Selonsertib] and report it.
1.07
